TARGET_SYSTEM: Phosphatidylinositol 5-phosphate 4-kinase type-2 gamma (Homo sapiens, UniProt Q8TBX8)
Sequence (Q8TBX8 whole entry): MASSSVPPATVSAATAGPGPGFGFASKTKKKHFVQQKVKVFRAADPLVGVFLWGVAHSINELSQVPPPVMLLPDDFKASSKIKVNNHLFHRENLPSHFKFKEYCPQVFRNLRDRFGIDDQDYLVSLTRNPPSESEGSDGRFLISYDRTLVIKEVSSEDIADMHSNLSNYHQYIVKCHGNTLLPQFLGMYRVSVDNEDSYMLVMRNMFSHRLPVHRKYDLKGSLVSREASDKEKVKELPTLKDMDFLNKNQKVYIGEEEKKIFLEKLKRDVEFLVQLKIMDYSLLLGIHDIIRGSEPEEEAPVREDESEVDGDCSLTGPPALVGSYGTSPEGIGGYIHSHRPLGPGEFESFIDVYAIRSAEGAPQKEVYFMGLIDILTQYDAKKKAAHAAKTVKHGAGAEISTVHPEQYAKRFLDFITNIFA
METHOD_DESCRIPTION: Inhibition of GST-fused human recombinant PI5P4Kgamma expressed in Escherichia coli BL21 (DE3) using dipalmitoyl-PI5P and [gamma-32P]ATP as substrate incubated for 10 to 60 mins by radiometric 32P-ATP/PI5P incorporation assay

{"STRUCTURE_SMILES_STRING": "FC(F)(F)c1ccccc1-c1nc(NCc2cccs2)c2ccccc2n1", "TARGET_SYSTEM": "Phosphatidylinositol 5-phosphate 4-kinase type-2 gamma (Homo sapiens, UniProt Q8TBX8)", "IC50 [µM]": 2}
